The values you see were collected from PubChem BioAssay.

assay: small-molecule binders of probe aNOTCH2, primary screen, biochemical, small-molecule microarray, 635/667 nm fluorescence (AID 1121); conditions: higher = more signal;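 note: score merges feature fluorescence read at 667 nm with its signal to noise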
Threshold rule: composite z-score greater than or equal to -0.08 is Criterion met; below that, Criterion not met.

[
  {
    "Molecule": "CC(C)(C)OC(=O)CC[C@@]1(C(=O)NCc2ccccc2)N=C(c2ccc(OCCCO)cc2)O[C@@H]1c1ccccc1CN=[N+]=[N-]",
    "Assigned class": "Criterion met"
  },
  {
    "Molecule": "NCCCCCNC(=O)[C@H]1C[C@H]2C(=O)NCC(=O)N2[C@H]1c1ccc(O)cc1",
    "Assigned class": "Criterion not met"
  },
  {
    "Molecule": "CC(C)C[C@@H]1NC(=O)[C@@]23C(=O)N[C@@H](Cc4ccccc4)C2[C@H](C)[C@@]2(C)O[C@H]2C3/C=C/C/C=C\\CNC(=O)[C@H](Cc2ccccc2)NC1=O (stereo partly drawn)",
    "Assigned class": "Criterion not met"
  },
  {
    "Molecule": "NC(=O)N1C(=O)C2C(C1=O)C1C=C(c3ccc(CO)cc3)C2C(C2CC2)N1Cc1cc2c(cc1Br)OCO2 (stereo not drawn)",
    "Assigned class": "Criterion met"
  },
  {
    "Molecule": "[N-]=[N+]=NCc1ccccc1C[C@@]1(C(=O)NCc2ccccc2)N=C(c2ccc(OCCCO)cc2)O[C@@H]1c1ccccc1",
    "Assigned class": "Criterion met"
  },
  {
    "Molecule": "O=C1c2ccccc2[C@@]2(Cc3ccccc3N(CC(F)(F)F)C2=O)[C@H](c2ccc(CO)cc2)N1Cc1ccccc1C(F)(F)F",
    "Assigned class": "Criterion not met"
  },
  {
    "Molecule": "Cc1ccc(S[C@]2(C(=O)NCC(C)C)CC(=O)N(C(C)C)[C@@H]2c2ccc(CO)cc2)cc1",
    "Assigned class": "Criterion not met"
  },
  {
    "Molecule": "CC(CO)N1C(=O)[C@@H]2C3C(=O)OCCC/C=C\\[C@H]3OC23C=CCN(Cc2ccccc2)C(=O)[C@@H]13 (stereo partly drawn)",
    "Assigned class": "Criterion not met"
  },
  {
    "Molecule": "C#CCN1C(C(=O)OCC)OC[C@H]1c1ccccc1 (stereo partly drawn)",
    "Assigned class": "Criterion not met"
  },
  {
    "Molecule": "COCCOC(=O)N1C(=O)[C@@]2(c3cc(C#CC4(O)CCCCCC4)ccc31)[C@H](c1ccccc1OCCO)N1[C@H](c3ccccc3)[C@H](c3ccccc3)OC(=O)[C@H]1[C@@H]2C(=O)Nc1nc2ccccc2s1",
    "Assigned class": "Criterion not met"
  },
  {
    "Molecule": "Cc1ccc(N2C(=O)c3ccccc3[C@](C)(C(=O)NCC(F)(F)F)[C@@H]2c2ccc(CO)cc2)nc1",
    "Assigned class": "Criterion not met"
  },
  {
    "Molecule": "C=CCN1C(=O)[C@@]2(O[C@@H](CCn3cc(CCO)nn3)[C@H]([Si](C)(C)c3ccc(OC)cc3)[C@H]2C)c2cc(NC(=O)c3ccc(OC)cc3)ccc21",
    "Assigned class": "Criterion met"
  },
  {
    "Molecule": "COc1ccc([Si](C)(C)[C@@H]2[C@@H](CC(=O)N3CCC[C@H]3CO)O[C@]3(C(=O)N(Cc4ccc(I)cc4)c4ccccc43)[C@H]2C)cc1",
    "Assigned class": "Criterion met"
  }
]

====

target: Neurogenic locus notch homolog protein 2 (Homo sapiens) (UniProt Q04721); assay: Notch2 binders on small-molecule microarrays, primary screen, biochemical, small-molecule microarray, 635 nm fluorescence, stem cell growth factors (AID 1073); conditions: Notch2 binding, higher = more signal
Sequence (Q04721 whole entry, looked up): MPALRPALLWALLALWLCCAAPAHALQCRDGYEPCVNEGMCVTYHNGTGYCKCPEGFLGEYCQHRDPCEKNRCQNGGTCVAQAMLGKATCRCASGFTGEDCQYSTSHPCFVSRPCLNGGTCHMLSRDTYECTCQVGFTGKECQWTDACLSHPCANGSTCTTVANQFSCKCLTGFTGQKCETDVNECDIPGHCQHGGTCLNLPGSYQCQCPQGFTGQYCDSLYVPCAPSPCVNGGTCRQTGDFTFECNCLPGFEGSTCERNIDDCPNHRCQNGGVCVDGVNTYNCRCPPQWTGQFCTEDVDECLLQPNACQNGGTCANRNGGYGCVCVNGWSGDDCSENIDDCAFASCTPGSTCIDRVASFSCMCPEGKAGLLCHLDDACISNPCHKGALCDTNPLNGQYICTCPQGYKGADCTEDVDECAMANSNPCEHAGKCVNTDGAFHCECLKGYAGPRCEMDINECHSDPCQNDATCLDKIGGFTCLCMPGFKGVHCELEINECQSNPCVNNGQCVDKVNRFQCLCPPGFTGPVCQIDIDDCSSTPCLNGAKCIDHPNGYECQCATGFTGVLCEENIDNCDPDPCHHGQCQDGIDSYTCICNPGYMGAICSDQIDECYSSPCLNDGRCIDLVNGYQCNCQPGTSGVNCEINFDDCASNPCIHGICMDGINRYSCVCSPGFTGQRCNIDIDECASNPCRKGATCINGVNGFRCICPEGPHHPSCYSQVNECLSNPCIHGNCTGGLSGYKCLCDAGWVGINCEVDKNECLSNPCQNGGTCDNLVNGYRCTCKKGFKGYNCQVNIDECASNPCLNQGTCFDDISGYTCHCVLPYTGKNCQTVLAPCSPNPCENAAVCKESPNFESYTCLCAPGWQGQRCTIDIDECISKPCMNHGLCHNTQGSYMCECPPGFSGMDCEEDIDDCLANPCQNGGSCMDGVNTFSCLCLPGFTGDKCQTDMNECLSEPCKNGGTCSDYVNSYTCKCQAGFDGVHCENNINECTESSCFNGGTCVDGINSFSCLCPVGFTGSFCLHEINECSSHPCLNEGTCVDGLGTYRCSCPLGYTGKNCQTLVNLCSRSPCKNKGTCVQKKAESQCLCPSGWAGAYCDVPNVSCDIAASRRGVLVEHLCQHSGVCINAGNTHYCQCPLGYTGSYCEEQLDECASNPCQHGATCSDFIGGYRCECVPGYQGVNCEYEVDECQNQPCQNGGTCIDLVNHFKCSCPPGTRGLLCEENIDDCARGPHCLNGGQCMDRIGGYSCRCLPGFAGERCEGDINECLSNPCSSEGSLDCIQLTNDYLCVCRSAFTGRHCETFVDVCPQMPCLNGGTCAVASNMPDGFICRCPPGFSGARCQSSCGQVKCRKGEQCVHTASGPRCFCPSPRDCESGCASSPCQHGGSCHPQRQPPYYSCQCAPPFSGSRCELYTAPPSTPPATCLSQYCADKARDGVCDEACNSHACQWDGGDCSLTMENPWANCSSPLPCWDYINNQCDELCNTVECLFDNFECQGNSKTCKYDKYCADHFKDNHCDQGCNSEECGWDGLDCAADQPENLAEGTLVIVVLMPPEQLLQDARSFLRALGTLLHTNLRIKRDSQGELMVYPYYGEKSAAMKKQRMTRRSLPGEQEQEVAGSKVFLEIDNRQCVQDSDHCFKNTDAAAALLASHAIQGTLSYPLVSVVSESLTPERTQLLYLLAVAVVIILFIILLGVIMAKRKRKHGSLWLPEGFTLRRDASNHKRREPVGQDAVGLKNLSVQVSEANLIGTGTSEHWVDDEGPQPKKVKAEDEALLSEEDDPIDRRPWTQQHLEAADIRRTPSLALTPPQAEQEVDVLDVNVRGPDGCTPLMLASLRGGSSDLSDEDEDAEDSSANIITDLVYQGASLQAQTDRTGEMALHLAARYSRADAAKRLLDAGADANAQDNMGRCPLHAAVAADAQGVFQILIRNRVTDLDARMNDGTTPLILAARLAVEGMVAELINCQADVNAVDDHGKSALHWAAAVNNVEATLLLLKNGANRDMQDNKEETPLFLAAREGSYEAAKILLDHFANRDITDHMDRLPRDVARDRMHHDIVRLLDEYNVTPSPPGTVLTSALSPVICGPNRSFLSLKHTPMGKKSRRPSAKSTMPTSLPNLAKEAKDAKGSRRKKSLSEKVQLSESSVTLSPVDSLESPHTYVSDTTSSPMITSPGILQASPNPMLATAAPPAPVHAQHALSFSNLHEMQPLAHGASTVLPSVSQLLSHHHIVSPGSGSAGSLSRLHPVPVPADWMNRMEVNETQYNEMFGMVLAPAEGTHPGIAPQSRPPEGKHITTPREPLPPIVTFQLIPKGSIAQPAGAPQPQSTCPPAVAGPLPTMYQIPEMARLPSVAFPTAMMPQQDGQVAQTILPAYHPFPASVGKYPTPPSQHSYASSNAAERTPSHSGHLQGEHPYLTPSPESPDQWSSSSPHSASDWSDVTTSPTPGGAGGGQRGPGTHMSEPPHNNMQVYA
Returns Y if the recorded composite z-score is greater than or equal to -0.5, and N otherwise.

[
  {
    "Molecule": "COc1ccc([Si](C)(C)[C@@H]2[C@@H](CCn3cc(CCO)nn3)O[C@]3(C(=O)N(Cc4ccc(N5C(=O)c6cccc7cccc5c67)cc4)c4ccccc43)[C@H]2C)cc1",
    "Assigned class": "Y"
  },
  {
    "Molecule": "Cc1ccc(N2C(=O)c3ccccc3[C@](C)(C(=O)NC3CC3)[C@@H]2c2ccc(CO)cc2)nc1",
    "Assigned class": "Y"
  },
  {
    "Molecule": "CC(=O)NCCCC[C@@H]1NC(=O)[C@@H]2C[C@H](C(=O)O)[C@H](c3cccc(OCCO)c3)N2C1=O",
    "Assigned class": "Y"
  },
  {
    "Molecule": "COC(=O)C1=CC(CCCO)=CC(C2CC2)N(Cc2cc3c(cc2Br)OCO3)C=C1C(=O)OC (stereo not given)",
    "Assigned class": "Y"
  },
  {
    "Molecule": "CCOC(=O)C[C@H]1[C@H](OC(=O)c2ccc(C(=O)c3ccccc3)cc2)[C@@H](NC(=O)Cc2ccc(OC)cc2)c2cc(OCCCO)ccc2N1C(=O)Cc1ccc(OC)cc1",
    "Assigned class": "Y"
  },
  {
    "Molecule": "COc1ccc(/C=C/C(=O)c2cccc(OCC(=O)OC(C)(C)C)c2)cc1",
    "Assigned class": "Y"
  },
  {
    "Molecule": "O=C1c2ccccc2[C@@]2(Cc3ccccc3N(CC(F)(F)F)C2=O)[C@H](c2ccc(CO)cc2)N1Cc1ccccc1C(F)(F)F",
    "Assigned class": "N"
  },
  {
    "Molecule": "COc1ccc([Si](C)(C)[C@@H]2[C@@H](CCn3cc([C@H](O)c4ccccc4)nn3)O[C@]3(C(=O)N(C)c4c(Br)cc(C)cc43)[C@H]2C)cc1",
    "Assigned class": "N"
  },
  {
    "Molecule": "O=C1N(CCS(=O)(=O)c2ccccc2)Cc2ccccc2[C@@H]2OC(c3ccc(OCCCO)cc3)=N[C@]12Cc1ccccc1",
    "Assigned class": "Y"
  },
  {
    "Molecule": "C=C(COC)/C(=C/C[C@H](OC(C)=O)c1cccc(OCCO)c1)c1cc(C(=O)OC)ccc1OC",
    "Assigned class": "Y"
  },
  {
    "Molecule": "CC1CC/C=C\\[C@H]2OC34C=CCN(C(C)C)C(=O)[C@H]3N(C(CO)C(C)C)C(=O)[C@@H]4C2C(=O)O1 (stereo not given in full)",
    "Assigned class": "N"
  },
  {
    "Molecule": "CO[C@H]1O[C@H](CO)[C@@H](OC(=O)Nc2ccccc2)[C@H](OC(=O)Nc2ccccc2-c2ccccc2)[C@H]1OC(=O)Nc1ccccc1-c1ccccc1",
    "Assigned class": "Y"
  },
  {
    "Molecule": "C=CCN1C(=O)[C@@]2(O[C@@H](CCO)[C@H]([Si](C)(C)c3ccc(OC)cc3)[C@H]2C)c2cc(N3C(=O)c4cccc5cccc3c45)ccc21",
    "Assigned class": "Y"
  },
  {
    "Molecule": "C=C(COC)C(=O)CC[C@H](OC(=O)c1ccccc1-c1ccccc1C(=O)O)c1ccccc1OCCO",
    "Assigned class": "Y"
  }
]

====

molecular target: Epidermal growth factor receptor (Homo sapiens); experiment: EGFR binders on small-molecule microarrays, primary screen, biochemical, small-molecule microarray, 635 nm fluorescence (AID 1104); details: EGFR binding, higher = more signal;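 note: score merges 667 nm emission intensity with spot signal to noise over triplicate slides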
Entry flag: Condition met if composite z-score reaches 0.06; Condition not met if it does not.

[
  {
    "Compound": "COC(=O)C1=CC(c2ccc(CO)cc2)=CC(c2cccs2)N(C)C=C1C(=O)OC (stereo unspecified)",
    "Assigned class": "Condition not met"
  },
  {
    "Compound": "C[N+](C)(C)CCCC[C@@H]1NC(=O)[C@@H]2C[C@H](C(=O)NCCCCCNC(=O)CS)[C@H](c3ccc(O)cc3)N2C1=O",
    "Assigned class": "Condition not met"
  },
  {
    "Compound": "O=C1O[C@H](c2ccccc2)[C@H](c2ccccc2)N2[C@H]1[C@@H](C(=O)NC[C@H](O)c1ccccc1)[C@]1(C(=O)Nc3ccc(C#CC4(O)CCCCCC4)cc31)[C@H]2c1ccc(O)cc1",
    "Assigned class": "Condition met"
  },
  {
    "Compound": "CC(C)[C@@H](C(=O)O)n1cc(-c2ccccn2)nn1",
    "Assigned class": "Condition met"
  },
  {
    "Compound": "CC(C)C(CO)N1C(=O)[C@@H]2[C@H]3C(=O)OCC=C[C@H]3OC23C=CCN(Cc2ccccc2)C(=O)[C@@H]13 (stereo partly specified)",
    "Assigned class": "Condition not met"
  },
  {
    "Compound": "NCCCCCCNC(=O)[C@@H]1C[C@@H]2C(=O)N[C@@H](Cc3ccccc3)C(=O)N2[C@@H]1c1ccc(O)cc1",
    "Assigned class": "Condition met"
  },
  {
    "Compound": "COCCOC(=O)N1C(=O)[C@@]2(c3cc(C#CC4(O)CCCCCC4)ccc31)[C@H](c1ccc(O)cc1)N1[C@H](c3ccccc3)[C@H](c3ccccc3)OC(=O)[C@H]1[C@@H]2C(N)=O",
    "Assigned class": "Condition met"
  },
  {
    "Compound": "C=C(C(=O)CC[C@H](OC(C)=O)c1ccc(CO)o1)C(C)C",
    "Assigned class": "Condition not met"
  },
  {
    "Compound": "CO[C@H]1O[C@H](CO)[C@@H](OC(=O)Nc2ccccc2)[C@H](OC(=O)Nc2ccccc2-c2ccccc2)[C@@H]1OC(=O)Nc1ccccc1-c1ccccc1",
    "Assigned class": "Condition met"
  },
  {
    "Compound": "O=C(NO)[C@]1(Cc2ccccc2)N=C(c2ccc(OCCCO)cc2)O[C@@H]1c1ccccc1",
    "Assigned class": "Condition not met"
  },
  {
    "Compound": "COc1ccc(C(=O)Nc2cccc(CN3C(=O)[C@@]4(O[C@@H](CCO)[C@H]([Si](C)(C)c5ccc(OC)cc5)[C@H]4C)c4ccccc43)c2)cc1",
    "Assigned class": "Condition not met"
  }
]
